assay: chemical genetic growth profiling, strain panel (AID 1159580);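 note: tested at 20 µM; growth read once vehicle control cultures reached saturation at 30 °C; 1 = growth at the plate median or of vehicle wells; lower values mean less growth of the strain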; details: S. cerevisiae deletion strains, growth OD, locus YNL322C, strain KRE1 (second series)
The whole screen tested about 5,500 compounds, of which about 2,000 (36%) were called active. Roughly 18% stayed inconclusive and do not appear here. Cut-off read from the data, not from the text of the source: active = normalized growth mostly below about 0.91 (no sharp cut-off); inconclusive = no clear call, values can overlap the other calls; inactive = mostly above about 0.92. The list shows a part of the results.
Please reply with one of these outcomes: 1.0 (active), 0.0 (inactive)

*Q* How did this test come out for CC1=CC2C(C(C)C)CCC(C)(O)C2CC1 (stereo not drawn) ?
*A* 0.0

*Q* How did this test come out for `COc1cc(-c2oc3cc(O)ccc3c(=O)c2O)ccc1O` ?
*A* 0.0

*Q* How did this test come out for `NC[C@H]1O[C@H](O[C@H]2[C@H](O)[C@@H](O[C@H]3O[C@H](CO)[C@@H](O)[C@H](N)[C@H]3O)[C@H](N)C[C@@H]2N)[C@H](N)C[C@@H]1O` ?
*A* 0.0

*Q* How did this test come out for `O=c1c(O)c(-c2ccc(O)c(O)c2)oc2cc(O)ccc12` ?
*A* 0.0

*Q* How did this test come out for `CN(C)CCc1c[nH]c2ccc(CS(=O)(=O)N3CCCC3)cc12` ?
*A* 0.0

*Q* How did this test come out for NC1C[C@H]1c1ccccc1 (stereo partly drawn) ?
*A* 0.0

*Q* How did this test come out for `CC(=O)Oc1cccc2c1C(=O)c1c(OC(C)=O)cc(C(=O)O)cc1C2=O` ?
*A* 1.0

*Q* How did this test come out for `CN1CCN(CC(=O)N2c3ccccc3C(=O)Nc3cccnc32)CC1` ?
*A* 0.0

*Q* How did this test come out for CC(=O)[C@@]1(O)CCC2C3CCC4=CC(=O)CC[C@]4(C)C3CC[C@@]21C (stereo partly drawn) ?
*A* 0.0

*Q* How did this test come out for `CN[C@@H]1[C@@H](O[C@H]2O[C@H](CO)[C@@H](N)[C@H](O)[C@H]2O)O[C@H]2C[C@@H](N)[C@H](O[C@H]3[C@H](O)[C@@H](O)[C@H](N)C[C@@H]3N)O[C@@H]2[C@@H]1O` ?
*A* 0.0

*Q* How did this test come out for OC(c1cc(C(F)(F)F)nc2c(C(F)(F)F)cccc12)C1CCCCN1 (stereo not drawn) ?
*A* 0.0

*Q* How did this test come out for `CCCc1nc2c(C)cc(-c3nc4ccccc4n3C)cc2n1Cc1ccc(-c2ccccc2C(=O)O)cc1` ?
*A* 0.0

*Q* How did this test come out for `CCOc1cccc(C(=O)c2ccc(O)c(O)c2O)c1` ?
*A* 0.0
